Just for reference, the supplement of paper PMC10307832 is where these values come from.

# Tested on: NCI-H1944
# method.notes: relative viability (nuclei count vs DMSO), 5 days (fraction); higher = more cells survive
# measurement.setup: first compound 4 µM
# label = criterion met if relative viability < 0.2 else criterion not met

Exercise: I wonder whether Cc1sc2c(c1C)C(c1ccc(Cl)cc1)=N[C@@H](CC(=O)OC(C)(C)C)c1nnc(C)n1-2 [JQ1] + COc1cccc2cc(-c3nc([C@H]4CC[C@H](C(=O)O)CC4)n4ncnc(N)c34)[nH]c12 [OSI-027] (partner 0.5 µM) has relative viability below 0.2. Can you tell?
Key: criterion not met

Exercise: I wonder whether Cc1sc2c(c1C)C(c1ccc(Cl)cc1)=N[C@@H](CC(=O)OC(C)(C)C)c1nnc(C)n1-2 [JQ1] + CS(=O)(=O)N1CCN(Cc2cc3nc(-c4cccc5[nH]ncc45)nc(N4CCOCC4)c3s2)CC1 [Pictilisib] (partner 1 µM) has relative viability below 0.2. Can you tell?
Key: criterion not met

Exercise: I wonder whether Cc1sc2c(c1C)C(c1ccc(Cl)cc1)=N[C@@H](CC(=O)OC(C)(C)C)c1nnc(C)n1-2 [JQ1] + Cc1cc(Nc2cc(N3CCN(C)CC3)nc(Sc3ccc(NC(=O)C4CC4)cc3)n2)n[nH]1 [Tozasertib] (partner 0.1 µM) has relative viability below 0.2. Can you tell?
Key: criterion met

Exercise: I wonder whether Cc1sc2c(c1C)C(c1ccc(Cl)cc1)=N[C@@H](CC(=O)OC(C)(C)C)c1nnc(C)n1-2 [JQ1] + CC(=O)c1c(C)c2cnc(Nc3ccc(N4CCNCC4)cn3)nc2n(C2CCCC2)c1=O [Palbociclib] (partner 0.5 µM) has relative viability below 0.2. Can you tell?
Key: criterion met

Exercise: I wonder whether Cc1sc2c(c1C)C(c1ccc(Cl)cc1)=N[C@@H](CC(=O)OC(C)(C)C)c1nnc(C)n1-2 [JQ1] + NC(=O)Nc1cc(-c2cccc(F)c2)sc1C(=O)N[C@H]1CCCNC1 [AZD7762] (partner 0.2 µM) has relative viability below 0.2. Can you tell?
Key: criterion not met

###

# System: HCC-15
# method.notes: relative viability (nuclei count vs DMSO), 5 days (fraction); higher = more cells survive
# measurement.setup: first compound 0.000632 µM
metric.name: relative viability
Answer with a number only.

Reported relative viability of CC(=O)O[C@@]12CO[C@@H]1C[C@H](O)[C@@]1(C)C(=O)[C@H](O)C3=C(C)[C@@H](OC(=O)[C@H](O)[C@@H](NC(=O)OC(C)(C)C)c4ccccc4)C[C@@](O)([C@@H](OC(=O)c4ccccc4)[C@H]21)C3(C)C [Docetaxel] + Nc1ncn([C@H]2C[C@H](O)[C@@H](CO)O2)c(=O)n1 [Decitabine] (partner 2 µM) : 0.338

Reported relative viability of CC(=O)O[C@@]12CO[C@@H]1C[C@H](O)[C@@]1(C)C(=O)[C@H](O)C3=C(C)[C@@H](OC(=O)[C@H](O)[C@@H](NC(=O)OC(C)(C)C)c4ccccc4)C[C@@](O)([C@@H](OC(=O)c4ccccc4)[C@H]21)C3(C)C [Docetaxel] + Cc1nc(Nc2ncc(C(=O)Nc3c(C)cccc3Cl)s2)cc(N2CCN(CCO)CC2)n1 [Dasatinib] (partner 0.075 µM) : 0.221

Reported relative viability of CC(=O)O[C@@]12CO[C@@H]1C[C@H](O)[C@@]1(C)C(=O)[C@H](O)C3=C(C)[C@@H](OC(=O)[C@H](O)[C@@H](NC(=O)OC(C)(C)C)c4ccccc4)C[C@@](O)([C@@H](OC(=O)c4ccccc4)[C@H]21)C3(C)C [Docetaxel] + CC(=O)Nc1cccc(-n2c(=O)n(C3CC3)c(=O)c3c(Nc4ccc(I)cc4F)n(C)c(=O)c(C)c32)c1 [Trametinib] (partner 0.02 µM) : 0.313

###

# Tested on: SW 1573
# method.notes: relative viability (nuclei count vs DMSO), 5 days (fraction); higher = more cells survive
# measurement.setup: first compound 0.02 µM
metric.name: relative viability
Answer with a number only.

Reported relative viability of CC(=O)O[C@@]12CO[C@@H]1C[C@H](O)[C@@]1(C)C(=O)[C@H](O)C3=C(C)[C@@H](OC(=O)[C@H](O)[C@@H](NC(=O)OC(C)(C)C)c4ccccc4)C[C@@](O)([C@@H](OC(=O)c4ccccc4)[C@H]21)C3(C)C [Docetaxel] + CC1(C)CCC(c2ccc(Cl)cc2)=C(CN2CCN(c3ccc(C(=O)NS(=O)(=O)c4ccc(N[C@H](CCN5CCOCC5)CSc5ccccc5)c(S(=O)(=O)C(F)(F)F)c4)cc3)CC2)C1 [Navitoclax] (partner 0.5 µM) : 0.0456

Reported relative viability of CC(=O)O[C@@]12CO[C@@H]1C[C@H](O)[C@@]1(C)C(=O)[C@H](O)C3=C(C)[C@@H](OC(=O)[C@H](O)[C@@H](NC(=O)OC(C)(C)C)c4ccccc4)C[C@@](O)([C@@H](OC(=O)c4ccccc4)[C@H]21)C3(C)C [Docetaxel] + N=C(N)NC(=N)NCCc1ccccc1 [Phenformin] (partner 250 µM) : 0.119

Reported relative viability of CC(=O)O[C@@]12CO[C@@H]1C[C@H](O)[C@@]1(C)C(=O)[C@H](O)C3=C(C)[C@@H](OC(=O)[C@H](O)[C@@H](NC(=O)OC(C)(C)C)c4ccccc4)C[C@@](O)([C@@H](OC(=O)c4ccccc4)[C@H]21)C3(C)C [Docetaxel] + C[C@@H](Oc1cc(-c2cnn(C3CCNCC3)c2)cnc1N)c1c(Cl)ccc(F)c1Cl [Crizotinib] (partner 1 µM) : 0.203

Reported relative viability of CC(=O)O[C@@]12CO[C@@H]1C[C@H](O)[C@@]1(C)C(=O)[C@H](O)C3=C(C)[C@@H](OC(=O)[C@H](O)[C@@H](NC(=O)OC(C)(C)C)c4ccccc4)C[C@@](O)([C@@H](OC(=O)c4ccccc4)[C@H]21)C3(C)C [Docetaxel] + CC(C)C[C@H](NC(=O)[C@H](Cc1ccccc1)NC(=O)c1cnccn1)B(O)O [Bortezomib] (partner 0.002 µM) : 0.201

###

Please go through the items and note down their relative viability.
# Tested on: NCI-H522
# method.notes: relative viability (nuclei count vs DMSO), 5 days (fraction); higher = more cells survive
# measurement.setup: first compound 0.08 µM
Answer with a number only.

Reported relative viability of Cc1cnc(-c2cnc(NCCNc3ccc(C#N)cn3)nc2-c2ccc(Cl)cc2Cl)[nH]1 + N=C(N)NC(=N)NCCc1ccccc1 [Phenformin] (partner 250 µM) : 0.639

Reported relative viability of Cc1cnc(-c2cnc(NCCNc3ccc(C#N)cn3)nc2-c2ccc(Cl)cc2Cl)[nH]1 + Cc1cc(Nc2cc(N3CCN(C)CC3)nc(Sc3ccc(NC(=O)C4CC4)cc3)n2)n[nH]1 [Tozasertib] (partner 0.1 µM) : 0.629

Reported relative viability of Cc1cnc(-c2cnc(NCCNc3ccc(C#N)cn3)nc2-c2ccc(Cl)cc2Cl)[nH]1 + NC(=O)Nc1cc(-c2cccc(F)c2)sc1C(=O)N[C@H]1CCCNC1 [AZD7762] (partner 0.2 µM) : 0.868

###

# System: NCI-H838
# method.notes: relative viability (nuclei count vs DMSO), 5 days (fraction); higher = more cells survive
# measurement.setup: first compound 8 µM
metric.name: relative viability
Answer with a number only.

Reported relative viability of O=c1[nH]c2ccccc2n1C1CCN(CCCC(c2ccc(F)cc2)c2ccc(F)cc2)CC1 [Pimozide] + COc1cccc2cc(-c3nc([C@H]4CC[C@H](C(=O)O)CC4)n4ncnc(N)c34)[nH]c12 [OSI-027] (partner 0.5 µM) : 0.353

Reported relative viability of O=c1[nH]c2ccccc2n1C1CCN(CCCC(c2ccc(F)cc2)c2ccc(F)cc2)CC1 [Pimozide] + COc1cc2c(Oc3ccc(NC(=O)C4(C(=O)Nc5ccc(F)cc5)CC4)cc3F)ccnc2cc1OCCCN1CCOCC1 [Foretinib] (partner 0.25 µM) : 1.04

Reported relative viability of O=c1[nH]c2ccccc2n1C1CCN(CCCC(c2ccc(F)cc2)c2ccc(F)cc2)CC1 [Pimozide] + CCNC(=O)c1noc(-c2cc(C(C)C)c(O)cc2O)c1-c1ccc(CN2CCOCC2)cc1 [Luminespib] (partner 0.01 µM) : 0.244

Reported relative viability of O=c1[nH]c2ccccc2n1C1CCN(CCCC(c2ccc(F)cc2)c2ccc(F)cc2)CC1 [Pimozide] + NC(=O)Nc1cc(-c2cccc(F)c2)sc1C(=O)N[C@H]1CCCNC1 [AZD7762] (partner 0.2 µM) : 0.966

Reported relative viability of O=c1[nH]c2ccccc2n1C1CCN(CCCC(c2ccc(F)cc2)c2ccc(F)cc2)CC1 [Pimozide] + C[C@@H](Oc1cc(-c2cnn(C3CCNCC3)c2)cnc1N)c1c(Cl)ccc(F)c1Cl [Crizotinib] (partner 1 µM) : 0.955

Reported relative viability of O=c1[nH]c2ccccc2n1C1CCN(CCCC(c2ccc(F)cc2)c2ccc(F)cc2)CC1 [Pimozide] + O=C(CCCCCCC(=O)Nc1ccccc1)NO [Vorinostat] (partner 1 µM) : 0.705
